# target-under-test: dried rat collagen type I (Rattus norvegicus, UniProt P02454+P02466)
# Construct: Rat collagen (acid soluble, type I, rat tail, Upstate USA, Inc, cat# 08-115); purchased Upstate USA, Inc 08-115; host or cells: rat tail (tissue extract)
# Sequence (P02454 152-1207 limits assumed): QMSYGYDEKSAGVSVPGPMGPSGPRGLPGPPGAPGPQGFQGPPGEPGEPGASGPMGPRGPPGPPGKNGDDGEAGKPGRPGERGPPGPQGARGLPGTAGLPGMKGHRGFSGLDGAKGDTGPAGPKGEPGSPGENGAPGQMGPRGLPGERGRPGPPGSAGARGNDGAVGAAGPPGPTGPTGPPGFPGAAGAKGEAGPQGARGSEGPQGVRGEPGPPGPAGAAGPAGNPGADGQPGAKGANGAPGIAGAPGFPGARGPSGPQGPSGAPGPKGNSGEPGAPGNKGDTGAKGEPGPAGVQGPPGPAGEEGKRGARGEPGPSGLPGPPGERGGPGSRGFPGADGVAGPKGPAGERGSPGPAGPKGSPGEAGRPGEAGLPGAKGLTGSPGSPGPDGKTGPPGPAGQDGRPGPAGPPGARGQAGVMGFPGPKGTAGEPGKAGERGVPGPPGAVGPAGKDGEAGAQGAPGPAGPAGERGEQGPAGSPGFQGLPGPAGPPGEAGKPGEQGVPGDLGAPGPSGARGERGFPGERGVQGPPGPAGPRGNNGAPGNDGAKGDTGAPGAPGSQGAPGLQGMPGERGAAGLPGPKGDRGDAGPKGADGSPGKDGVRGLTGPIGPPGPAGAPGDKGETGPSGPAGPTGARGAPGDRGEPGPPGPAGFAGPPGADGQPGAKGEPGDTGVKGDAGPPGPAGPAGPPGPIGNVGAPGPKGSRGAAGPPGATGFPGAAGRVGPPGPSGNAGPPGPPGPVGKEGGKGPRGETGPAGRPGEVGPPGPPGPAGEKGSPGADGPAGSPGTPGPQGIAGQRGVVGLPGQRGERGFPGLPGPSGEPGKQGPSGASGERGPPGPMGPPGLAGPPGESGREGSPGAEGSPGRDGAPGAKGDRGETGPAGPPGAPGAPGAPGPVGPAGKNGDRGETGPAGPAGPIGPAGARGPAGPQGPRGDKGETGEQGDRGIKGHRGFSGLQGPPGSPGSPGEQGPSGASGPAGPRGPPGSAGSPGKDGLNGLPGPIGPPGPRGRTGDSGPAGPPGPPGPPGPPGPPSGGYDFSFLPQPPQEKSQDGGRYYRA
# Sequence (P02466 86-1125 limits assumed): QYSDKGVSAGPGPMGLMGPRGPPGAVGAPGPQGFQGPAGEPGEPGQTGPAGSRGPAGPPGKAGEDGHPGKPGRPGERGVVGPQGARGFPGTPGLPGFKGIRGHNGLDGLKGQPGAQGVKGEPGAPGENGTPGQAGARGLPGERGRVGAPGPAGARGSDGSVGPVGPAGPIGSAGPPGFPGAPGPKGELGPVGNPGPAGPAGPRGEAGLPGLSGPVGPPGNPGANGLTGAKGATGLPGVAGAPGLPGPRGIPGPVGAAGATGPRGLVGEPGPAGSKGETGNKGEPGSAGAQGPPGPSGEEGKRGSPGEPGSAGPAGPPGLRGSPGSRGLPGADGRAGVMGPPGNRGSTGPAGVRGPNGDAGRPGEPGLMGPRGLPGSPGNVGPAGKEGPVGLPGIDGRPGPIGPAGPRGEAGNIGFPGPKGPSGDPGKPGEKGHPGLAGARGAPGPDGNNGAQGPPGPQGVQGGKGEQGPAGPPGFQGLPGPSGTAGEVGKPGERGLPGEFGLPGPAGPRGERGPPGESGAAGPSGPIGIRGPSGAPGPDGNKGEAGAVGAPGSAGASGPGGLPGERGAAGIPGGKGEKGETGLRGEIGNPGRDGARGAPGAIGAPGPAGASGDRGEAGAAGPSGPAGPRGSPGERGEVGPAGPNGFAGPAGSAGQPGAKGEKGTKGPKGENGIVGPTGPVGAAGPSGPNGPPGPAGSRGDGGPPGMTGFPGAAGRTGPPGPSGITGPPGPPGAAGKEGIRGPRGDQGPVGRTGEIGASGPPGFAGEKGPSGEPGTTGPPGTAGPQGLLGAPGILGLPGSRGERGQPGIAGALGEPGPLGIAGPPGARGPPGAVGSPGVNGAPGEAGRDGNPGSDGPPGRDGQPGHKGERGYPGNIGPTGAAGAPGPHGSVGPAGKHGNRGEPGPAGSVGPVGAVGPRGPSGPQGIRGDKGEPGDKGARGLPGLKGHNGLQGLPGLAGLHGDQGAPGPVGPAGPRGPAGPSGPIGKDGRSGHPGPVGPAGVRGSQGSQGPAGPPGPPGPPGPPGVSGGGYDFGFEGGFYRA
# protocol-summary: Dried collagen assay (DCA), rat collagen
# Assay type: binding
# condition-notes: 5 μM peptide in PBS pH 7.4, 2 hours at room temperature; percent bound
Bridge positions count the residues as written; N and C are the ends. Ends that are not written are not given here.
# cutoff 3% applies to % Collagen Binding, Dried Rat; >= gives true (1), < gives false (0)

>>> class_assignment("176 (QWTCSGDEYTWHCNYE) [compound 176]")
"false (0)"
>>> class_assignment("175 (QWTCSGDEYTWHCNYE) [compound 175]")
"false (0)"
>>> class_assignment("142 (QWTCSADEYTWHCNYE) [compound 142]")
"true (1)"
>>> class_assignment("165 (QWTCSGDEYTWHCNYE) [compound 165]")
"true (1)"
>>> class_assignment("169 (QWTCSGDEYTWHCNYE) [compound 169]")
"true (1)"
>>> class_assignment("163 (YHACYQAGCWIW) [compound 163]")
"true (1)"
>>> class_assignment("168 (QWTCSGDEYTWHCNYE) [compound 168]")
"false (0)"
>>> class_assignment("173 (QWTCSGDEYTWHCNYE) [compound 173]")
"true (1)"
>>> class_assignment("137 (YHACYQAGCWAW; disulfide 4-9 (inferred)) [compound 137]")
"true (1)"
>>> class_assignment("171 (QWTCSGDEYTWHCNYE) [compound 171]")
"true (1)"

---

# target-under-test: dried human collagen type I (Homo sapiens, UniProt P02452+P08123)
# Construct: Acid soluble human collagen extracted from placenta; purchased Sigma C7774; host or cells: human placenta (tissue extract)
# Sequence (P02452 162-1218 limits assumed): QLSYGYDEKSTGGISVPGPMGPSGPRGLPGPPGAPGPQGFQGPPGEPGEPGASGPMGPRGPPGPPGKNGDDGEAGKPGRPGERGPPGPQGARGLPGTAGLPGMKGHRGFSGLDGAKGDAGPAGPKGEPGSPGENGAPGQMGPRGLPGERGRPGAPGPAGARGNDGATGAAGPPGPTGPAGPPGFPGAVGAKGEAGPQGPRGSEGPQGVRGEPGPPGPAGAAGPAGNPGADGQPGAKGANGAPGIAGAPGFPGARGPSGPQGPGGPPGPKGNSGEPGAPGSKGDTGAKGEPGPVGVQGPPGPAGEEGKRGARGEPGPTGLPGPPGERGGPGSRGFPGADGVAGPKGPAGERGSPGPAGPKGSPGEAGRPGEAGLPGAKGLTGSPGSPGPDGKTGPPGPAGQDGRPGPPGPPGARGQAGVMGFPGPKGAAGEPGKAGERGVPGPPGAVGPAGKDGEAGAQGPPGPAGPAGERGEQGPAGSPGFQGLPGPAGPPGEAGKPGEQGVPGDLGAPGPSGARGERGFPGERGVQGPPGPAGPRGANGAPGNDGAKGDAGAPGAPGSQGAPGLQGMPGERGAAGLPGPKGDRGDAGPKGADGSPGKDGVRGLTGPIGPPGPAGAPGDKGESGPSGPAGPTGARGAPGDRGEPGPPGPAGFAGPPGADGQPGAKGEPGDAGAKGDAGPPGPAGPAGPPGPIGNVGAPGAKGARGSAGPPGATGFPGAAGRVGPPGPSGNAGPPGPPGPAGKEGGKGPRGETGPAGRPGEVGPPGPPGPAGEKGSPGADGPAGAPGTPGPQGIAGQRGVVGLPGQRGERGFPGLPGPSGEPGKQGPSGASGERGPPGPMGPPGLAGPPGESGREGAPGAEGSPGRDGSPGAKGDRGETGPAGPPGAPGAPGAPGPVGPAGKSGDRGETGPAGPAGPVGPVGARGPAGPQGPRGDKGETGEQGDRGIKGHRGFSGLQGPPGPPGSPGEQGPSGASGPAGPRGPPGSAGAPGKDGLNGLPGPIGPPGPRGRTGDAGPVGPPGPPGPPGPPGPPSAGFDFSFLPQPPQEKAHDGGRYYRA
# Sequence (P08123 80-1119 limits assumed): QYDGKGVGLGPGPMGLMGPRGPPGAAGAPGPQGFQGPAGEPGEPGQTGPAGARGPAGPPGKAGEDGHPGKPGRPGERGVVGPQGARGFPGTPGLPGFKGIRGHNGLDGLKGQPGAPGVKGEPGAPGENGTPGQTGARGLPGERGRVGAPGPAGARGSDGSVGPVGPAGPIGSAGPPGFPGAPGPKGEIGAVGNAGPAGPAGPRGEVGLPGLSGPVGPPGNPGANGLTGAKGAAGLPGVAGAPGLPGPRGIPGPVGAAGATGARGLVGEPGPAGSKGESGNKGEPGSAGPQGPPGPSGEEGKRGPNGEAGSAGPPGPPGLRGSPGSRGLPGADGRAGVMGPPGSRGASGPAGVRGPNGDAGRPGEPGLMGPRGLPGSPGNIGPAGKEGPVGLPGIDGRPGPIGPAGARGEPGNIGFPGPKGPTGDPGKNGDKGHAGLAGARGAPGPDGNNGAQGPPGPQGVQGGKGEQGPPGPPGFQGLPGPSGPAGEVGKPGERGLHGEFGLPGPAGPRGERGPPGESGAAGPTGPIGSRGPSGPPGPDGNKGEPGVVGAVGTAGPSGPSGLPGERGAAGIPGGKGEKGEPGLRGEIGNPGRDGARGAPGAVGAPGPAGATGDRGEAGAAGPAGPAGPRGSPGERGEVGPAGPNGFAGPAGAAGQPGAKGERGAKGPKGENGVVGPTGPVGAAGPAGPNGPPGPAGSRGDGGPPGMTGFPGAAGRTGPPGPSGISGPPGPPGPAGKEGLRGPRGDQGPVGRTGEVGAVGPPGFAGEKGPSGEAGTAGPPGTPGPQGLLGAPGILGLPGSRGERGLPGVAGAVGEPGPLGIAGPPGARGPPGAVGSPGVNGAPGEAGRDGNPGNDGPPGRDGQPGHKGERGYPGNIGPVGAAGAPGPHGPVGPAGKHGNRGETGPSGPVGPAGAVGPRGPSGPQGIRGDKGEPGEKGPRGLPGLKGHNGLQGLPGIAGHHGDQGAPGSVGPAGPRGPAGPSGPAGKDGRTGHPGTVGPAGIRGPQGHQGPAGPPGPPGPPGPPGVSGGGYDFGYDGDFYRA
# protocol-summary: Dried collagen assay (DCA), human collagen
# Assay type: binding
# condition-notes: 5 μM peptide in PBS pH 7.4, 2 hours at room temperature; percent bound
Bridge positions count the residues as written; N and C are the ends. Ends that are not written are not given here.
Quick rule for you: Dried Human Collagen Binding under 4% gets Met, anything else gets Not met.

>>> class_assignment("173 (QWTCSGDEYTWHCNYE) [compound 173]")
"Not met"
>>> class_assignment("159 (YHACYQAGCWIW) [compound 159]")
"Not met"
>>> class_assignment("3 (PWWCHEMPSMCFGF) [compound 3]")
"Met"
>>> class_assignment("2 (WGWCEWAQNNCWNY) [compound 2]")
"Not met"
>>> class_assignment("175 (QWTCSGDEYTWHCNYE) [compound 175]")
"Met"
>>> class_assignment("176 (QWTCSGDEYTWHCNYE) [compound 176]")
"Met"
>>> class_assignment("65 (KWECVHTKGEWYCETK; disulfide 4-13 (inferred)) [compound 65]")
"Not met"
>>> class_assignment("37 (LWNCHGTDANWKCVLN; disulfide 4-13 (inferred)) [compound 37]")
"Not met"
>>> class_assignment("174 (QWTCSGDEYTWHCNYE) [compound 174]")
"Not met"
>>> class_assignment("168 (QWTCSGDEYTWHCNYE) [compound 168]")
"Met"
>>> class_assignment("113 (FSECVWVNAYQCEYF; disulfide 4-12 (inferred)) [compound 113]")
"Met"
>>> class_assignment("112 (AKACSVHDEFGCLIS; disulfide 4-12 (inferred)) [compound 112]")
"Not met"
>>> class_assignment("166 (QWTCSGDEYTWHCNYE) [compound 166]")
"Met"
>>> class_assignment("39 (GWQCSGDASVWNCDWI; disulfide 4-13 (inferred)) [compound 39]")
"Not met"
>>> class_assignment("38 (GWSCHGDAADWPCQWS; disulfide 4-13 (inferred)) [compound 38]")
"Not met"
>>> class_assignment("130 (WWACQKGRHDWEKCRWL; disulfide 4-14 (inferred)) [compound 130]")
"Not met"
>>> class_assignment("147 (QWTCSGDEYTAHCNYE) [compound 147]")
"Not met"
>>> class_assignment("36 (SWSCGGDHNAWKCQYS; disulfide 4-13 (inferred)) [compound 36]")
"Not met"
>>> class_assignment("165 (QWTCSGDEYTWHCNYE) [compound 165]")
"Met"

---

# target-under-test: dried human collagen type I (Homo sapiens, UniProt P02452+P08123)
# Construct: Acid soluble human collagen extracted from placenta; purchased Sigma C7774; host or cells: human placenta (tissue extract)
# protocol-summary: Dried collagen assay (DCA), human collagen
# Type: binding
# condition-notes: 5 μM peptide in PBS pH 7.4, 2 hours at room temperature; percent bound
Bridge positions count the residues as written; N and C are the ends. Ends that are not written are not given here.
endpoint-name: Dried Human Collagen Binding

>>> readout_value("167 (QWTCSGDEYTWHCNYE) [compound 167]")
"4%"
>>> readout_value("13 (QWTCSGDEYTWHCNYE; disulfide 4-13 (inferred)) [compound 13]")
"78-85%"
>>> readout_value("74 (QWHCTTRFPHHYCLYG) [compound 74]")
"67-69%"

From: patent US20080058636A1
